Where these numbers come from: ChEMBL document CHEMBL5260854

target: Transient receptor potential cation channel subfamily M member 8 (Homo sapiens); experiment: Inhibition of human TRPM8 expressed in HEK293 cells assessed as reduction in ethyl 4-methoxy-2-phenylthiazole-5-carboxylate induced Ca2+ efflux preincubated for 5 mins followed by ethyl 4-methoxy-2-phenylthiazole-5-carboxylate addition and measured for 3 mins by FLIPR assay; type: cell-based
Sequence (Q7Z2W7 whole entry): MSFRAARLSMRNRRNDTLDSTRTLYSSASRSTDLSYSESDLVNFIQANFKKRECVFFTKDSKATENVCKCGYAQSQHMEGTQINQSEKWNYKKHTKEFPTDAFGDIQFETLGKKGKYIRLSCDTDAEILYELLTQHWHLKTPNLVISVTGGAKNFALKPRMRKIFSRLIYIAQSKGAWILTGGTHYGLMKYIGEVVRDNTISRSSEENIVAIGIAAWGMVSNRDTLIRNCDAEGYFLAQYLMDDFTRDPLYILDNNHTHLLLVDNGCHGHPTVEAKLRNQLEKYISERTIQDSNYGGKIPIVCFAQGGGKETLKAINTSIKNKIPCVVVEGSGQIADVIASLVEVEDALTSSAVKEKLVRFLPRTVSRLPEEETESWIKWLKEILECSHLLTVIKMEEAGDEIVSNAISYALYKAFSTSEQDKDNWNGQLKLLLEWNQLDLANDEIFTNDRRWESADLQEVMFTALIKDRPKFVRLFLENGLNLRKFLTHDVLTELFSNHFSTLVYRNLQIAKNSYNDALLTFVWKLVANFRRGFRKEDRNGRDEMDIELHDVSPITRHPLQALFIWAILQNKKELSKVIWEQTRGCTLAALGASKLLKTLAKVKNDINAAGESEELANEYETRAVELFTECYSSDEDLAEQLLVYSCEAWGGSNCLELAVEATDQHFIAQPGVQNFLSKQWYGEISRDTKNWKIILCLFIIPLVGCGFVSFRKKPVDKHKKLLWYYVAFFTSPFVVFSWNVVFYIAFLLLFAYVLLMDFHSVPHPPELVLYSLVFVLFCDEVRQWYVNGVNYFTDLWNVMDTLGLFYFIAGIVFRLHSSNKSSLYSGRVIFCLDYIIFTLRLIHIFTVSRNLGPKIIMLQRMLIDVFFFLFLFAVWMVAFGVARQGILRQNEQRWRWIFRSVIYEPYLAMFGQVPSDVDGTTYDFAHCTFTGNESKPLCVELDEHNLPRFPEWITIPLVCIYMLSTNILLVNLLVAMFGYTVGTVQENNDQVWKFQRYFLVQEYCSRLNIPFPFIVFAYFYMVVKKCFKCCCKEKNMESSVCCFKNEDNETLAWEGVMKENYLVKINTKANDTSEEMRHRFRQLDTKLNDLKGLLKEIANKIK
Measured Endpoint: IC50 (nM)

{"Smiles Str": "O=C(c1sc(-c2cccc(F)c2)nc1O)N1CCOCC1", "Assayed Target": "Transient receptor potential cation channel subfamily M member 8 (Homo sapiens)", "Measured Endpoint": "IC50", "Unit String": "nM", "Assay Value": 12200}
{"Smiles Str": "O=C(c1sc(-c2cccc(F)c2)nc1O)N1CCCCCO1", "Assayed Target": "Transient receptor potential cation channel subfamily M member 8 (Homo sapiens)", "Measured Endpoint": "IC50", "Unit String": "nM", "Assay Value": 32}
{"Smiles Str": "CCON(C)C(=O)c1sc(-c2cccc(F)c2)nc1O", "Assayed Target": "Transient receptor potential cation channel subfamily M member 8 (Homo sapiens)", "Measured Endpoint": "IC50", "Unit String": "nM", "Assay Value": 1680}

a. Cc1nc(-c2sc(-c3cccc(F)c3)nc2O)no1
b. CCN(C(=O)/C=C/c1cccc([N+](=O)[O-])c1)c1ccccc1
Could you check which of a and b has a smaller value for IC50? Field: selected label. Fill in the label of the entry you choose.
b

====

test: Lipophilicity, logP of compound; format: physicochemical; conditions: octanol/water
Measured Endpoint: logP

{"Smiles Str": "CCN(C(=O)/C=C/c1cccc([N+](=O)[O-])c1)c1ccccc1", "logP": 3.6}
{"Smiles Str": "CSc1cc(-c2ccc(Cl)cc2)[nH]n1", "logP": 3.57}
{"Smiles Str": "COc1cccc(NS(=O)(=O)c2c(C)cc(C)c([N+](=O)[O-])c2C)c1", "logP": 4.33}
{"Smiles Str": "COC(=O)c1sc(-c2ccccc2)nc1O", "logP": 3.77}

====

assay: Clearance in rat at 5 mg/kg, iv; assay type: ADME, organism-based; settings: in vivo
Measured Endpoint: clearance (mL/min/kg)
Report the figure in mL/min/kg without appending any unit label.

Item CCC(=O)c1sc(-c2cccc(F)c2)nc1O : provide clearance
5.31

====

molecular target: Transient receptor potential cation channel subfamily M member 8 (Homo sapiens); experiment: Inhibition of human TRPM8 expressed in HEK293 cells assessed as reduction in icilin induced Ca2+ efflux preincubated for 5 mins followed by icilin addition and measured for 3 mins by FLIPR assay; assay type: cell-based
pIC50: −log10 of the molar value.
Measured Endpoint: pIC50

P. O=C(c1sc(-c2ccccc2O)nc1O)N1CCCO1
Q. CCC(=O)c1sc(-c2cccc(F)c2)nc1O
# min-compare on pIC50 between P and Q Kindly state the label of the option you pick.
Q
(Q: 7.48, P: 8.35)

====

assay: Metabolic stability in rat liver microsomes assessed as phase 2 metabolism by measuring half life; type: ADME, Microsome
Measured Endpoint: half-life (h)

{"Smiles Str": "CCC(=O)c1sc(-c2cccc(F)c2)nc1O", "Measured Endpoint": "half-life", "Assay Value": 2.27}
{"Smiles Str": "CC(=O)c1sc(-c2cccc(F)c2)nc1O", "Measured Endpoint": "half-life", "Assay Value": 1.79}
{"Smiles Str": "CC(C)C(=O)c1sc(-c2cccc(F)c2)nc1O", "Measured Endpoint": "half-life", "Assay Value": 1.63}
{"Smiles Str": "CC(C)CC(=O)c1sc(-c2cccc(F)c2)nc1O", "Measured Endpoint": "half-life", "Assay Value": 2.6}
{"Smiles Str": "CCCC(=O)c1sc(-c2cccc(F)c2)nc1O", "Measured Endpoint": "half-life", "Assay Value": 2.12}
